Test system: SN12C renal
protocol: NCI-60 one-dose screen, 48 h
run.conditions: 10 µM unless noted
This is part of a sample that, as a whole, favours compounds with a hit. Of some 83,000 tested, about 20% had one in any assay. Calls of active or inactive are those of the source. How the source made its calls: active means growth percent below 10; inactive means the rest.
A correct response names exactly one class from active, inactive

As a guide, the following entries are already answered.
How was `C=CC1=C[C@@H]2[C@@H]3O[C@]4(CC[C@H](O4)[C@@H](C)C[C@@H](O)C3=O)C[C@H](O)C3=NCC[C@@]32CC1` classified in this test? active

Could you kindly confirm the outcome this assay logged for `CN(C)C(=O)Oc1ccccc1-c1ccccc1` ? inactive

---
Recorded call for `ClCCN(CCCl)c1ccc(-n2cnc3c(Cl)ncnc32)cc1` ? inactive

For this compound, state the assay outcome: CC1CCCC(C[N+](C)(C)C)C1=O (stereo not given) inactive

// return assay outcome for CN1C(=O)C23CC4(C56CC78SSC(CO)(C(=O)N7C5Nc5ccccc56)N(C)C8=O)c5ccccc5NC4N2C(=O)C1(CO)SS3 (stereo not given) active

Short answer needed: outcome of this test for `O=C(O)c1c(Cl)n(Cc2ccc(O)cc2)c2ccc(O)cc12` ? inactive

====

System: HOP-92 NSCLC
protocol: NCI-60 one-dose screen, 48 h
run.conditions: 10 µM unless noted
About 83,000 compounds went through this panel and 20% of them were active in at least one assay; those are over-represented in the sample as a whole. The source made the active and inactive calls. How the source made its calls: active means growth percent below 10; inactive means the rest.
Log the outcome using a class from Y for active, N for inactive

Given `CC(C)[C@@H]1NC(=O)[C@]2(C)CSC(=N2)c2csc(n2)CNC(=O)C[C@@H](/C=C/CCS)OC1=O` , state the outcome it received in this test. Y

Please indicate how the test categorized CCCC(C)C1(CC)C(=O)NC(=O)N(C)C1=O (centres undefined) . N

Please indicate how the test categorized O=C([O][Hg][CH2]C1OCCOC1[CH2][Hg][O]C(=O)c1ccccc1)c1ccccc1 (centres undefined) . Y

Hey, what did the test say about CC12CC(=O)C3(SC#N)C(CCC4=CC(=O)CCC43C)C1CCC2=O (centres undefined) ? N

Per the records of this test, what outcome belongs to O=C1C=C(N2C3C4CCC(C4)C32)C(=O)C=C1c1ccccc1 (centres undefined) ? N

Outcome logged for `Cn1cc(-c2csc(-c3cn(CCN4CCOCC4)c4ccc(F)cc34)n2)c2cccnc21` in this assay: N

Others:
Lab log entry: `COc1ccc(/C=C/c2cc(OC)c(OC)c(OC)c2)cc1NC(=O)/C=C/c1ccc(F)cc1` — outcome as called in the assay? N

Could you please tell me the result logged for `CCn1c2ccccc2c2cc(C(=O)c3ccc(C)c4ccccc34)ccc21` in this assay? N

// return assay outcome for CN1CCC(c2c[nH]c3ccccc23)C1 (centres undefined) N

Could you kindly confirm the outcome this assay logged for `COc1ccc(C/C(C)=C(\c2ccc(OCCN3CCOCC3)cc2)c2ccc(OC(=O)Cc3ccccc3)cc2)cc1` ? Y

Assay result, entry CCN(CCO)C(Cc1ccccc1)c1ccccc1 (centres undefined) — outcome? N

====

Provide the recorded growth for the entries that follow.
System: SN12C renal
protocol: NCI-60 one-dose screen, 48 h (100 = growth as untreated, 0 = no growth, -100 = all killed)
run.conditions: 10 µM unless noted
Compounds without any hit were thinned out: in the full panel of roughly 83,000, 20% have a hit.
Give bare numbers, in %.

Answer with the recorded growth of CCCCOc1ccc(C(N)Cc2ccccc2)cc1 (configuration not stated) only. 95.4

Specify growth for `CC[C@H](C)[C@H](NC(=O)[C@H]1CCCCN1C)C(=O)N(C)[C@H](CCc1nc(C(=O)N[C@@H](Cc2ccccc2)C[C@H](C)C(=O)OC)cs1)C(C)C` and stop. 28.9

Identify the reported growth for the following entry. `COC(=O)CCc1c[nH]c2ccc(N(CCCl)CCCl)cc12` 36.6

Dear colleague, please send me the reported growth for `CC[C@H](C)[C@@H]([C@@H](CC(=O)N1CCC[C@H]1[C@H](OC)[C@@H](C)C(=O)N[C@H](C)[C@@H](O)c1ccccc1)OC)N(C)C(=O)[C@@H](NC(=O)[C@@H](NC)C(C)C)C(C)C` when you can. 36.7

Give measured growth for every item shown.
1. CC[C@H](C)[C@H](NC(=O)N[C@@H](C)c1ccccc1)C(=O)N(C)[C@H](C[C@@H](OC(C)=O)c1nc(C(=O)N[C@@H](Cc2ccccc2)C[C@H](C)C(=O)OC)cs1)C(C)C
2. Cc1c(NS(=O)(=O)c2ccccc2)ccc([N+](=O)[O-])c1Cl
3. c1cnc2[nH]cc(-c3csc(-c4cn(CCCCN5CCOCC5)c5ccccc45)n3)c2c1

39.9
58.6
67

Values from PubChem BioAssay (NCI)
